TARGET_DESC: δW279A-γ complex;β clamp (Escherichia coli;Escherichia coli, UniProt P06710-2;P28630;P28631;P28905;P28632;P0A988 1-431;1-343;1-334;1-147;1-137;1-366, W279A|)
ASSAY_INFO: fluorescence anisotropy
REPORTED_METRIC: Kd (nM)
One number for each entry, in nM.

*Q* Please report the recorded Kd for 30 nt/55 nt p/tDNA (mixed, 5' amino linker on template (S2)) DNA 1: TGAGCGTTTTTCCTGTTGCAATGGCTGGCGGTAATATTGTTCTGGATATTACCAG DNA 2: CTGGTAATATCCAGAACAATATTACCGCCA .
*A* 590
